Reference source: PubChem BioAssay (NCI)

- System: SF-539 CNS
- measurement.description: NCI-60 one-dose screen, 48 h (100 = growth as untreated, 0 = no growth, -100 = all killed)
- details: 10 µM unless noted
This is part of a sample that, as a whole, favours compounds with a hit. Of some 83,000 tested, about 20% had one in any assay.
Kind request: treat 80% as inclusive, so growth at 80% or higher is class 1, anything lower is class 0.

Field: example entries. Status: answers known.
- compound: "O=C(O)c1ccc(-n2cc(/C=N/Nc3ccc(Cl)cc3)c(-c3ccc(F)c(F)c3)n2)cc1"
  target.desc: "SF-539 CNS"
  label: "class 1"
- compound: "COc1cc(Nc2ncccc2C(=O)Nc2nc3ccc(F)cc3s2)cc(OC)c1OC"
  target.desc: "SF-539 CNS"
  label: "class 1"
- compound: "Cc1nssc1=S"
  target.desc: "SF-539 CNS"
  label: "class 1"
- compound: "OCCOCC(F)(F)F"
  target.desc: "SF-539 CNS"
  label: "class 1"
- compound: "COc1cc(/C=C2/Oc3cc4occc4c(OC)c3C2=O)ccc1OCC(=O)Nc1ccncc1"
  target.desc: "SF-539 CNS"
  label: "class 1"

Lookup: # bool: growth of CCC(C)Nc1ccc(N)cc1 (stereo not drawn) >= 80%
Found: class 0

Lookup: Continue with "COc1cc(C(=O)N2CCN(C(=O)c3cc(OC)c(OCc4ccccc4)cc3N)CC2)c(N)cc1OCc1ccccc1"
Found: class 1

Lookup: Also "C=C1C(=O)O[C@H]2[C@H]1CC/C(COC(=O)c1ccccc1)=C\CC[C@@]1(C)O[C@@H]21" , if possible.
Found: class 0

Lookup: Thanks! And "O=C(Nc1ccc(-n2cc(-c3ccncc3)c(-c3ccc(O)c(Cl)c3)n2)cc1)Nc1cccc(Cl)c1Cl" ?
Found: class 0

Lookup: And the next one, "Nc1nc(Cl)c2c(C(F)(F)F)cn(CC3CCNCC3)c2n1" ?
Found: class 1

Lookup: Another compound to look at: "CC(C)Cn1cnc2c3ccccc3nc(NCn3nc(-c4cc(Cl)cc(Cl)c4Cl)oc3=S)c21"
Found: class 1

Lookup: What do you get for "COc1cc(NC(=O)c2cc(OC)c3ccn(C)c3c2)cc2c1C[C@]1(C)CC[C@@H](O)C(C)(C)[C@H]1O2" ?
Found: class 0

Lookup: Entry to check: "COc1ccc(-c2coc3c(CO)c(O)ccc3c2=O)cc1"
Found: class 0

Lookup: Param item: "COc1cc(C(=O)C[n+]2ccccc2)ccc1OC(C)=O"
Found: class 1

Lookup: Lookup CC(NCCC(c1ccccc1)c1ccccc1)c1ccccc1 (stereo not drawn)
Found: class 1

Lookup: Continue with "CCn1cc(/C=C2\Oc3cc(OCC#N)ccc3C2=O)c2cc(OC)ccc21"
Found: class 0

Lookup: Now the same for "Nc1nc(Cl)cc(NCCCCNc2cc(Cl)nc(N)n2)n1"
Found: class 1

Lookup: Further, for "COc1cc2c(cc1OC)-c1c(oc3c4c(ccc3c1=O)OC(C)(C)C=C4)CO2" ?
Found: class 1
